Exercise: state measured Rat binding for each of the binders provided.
Biological target: rat collagen (acid soluble, type I, rat tail, Upstate 08-115) (rat) (UniProt P02454)
Sequence (P02454 152-1207, chain 1 of 2): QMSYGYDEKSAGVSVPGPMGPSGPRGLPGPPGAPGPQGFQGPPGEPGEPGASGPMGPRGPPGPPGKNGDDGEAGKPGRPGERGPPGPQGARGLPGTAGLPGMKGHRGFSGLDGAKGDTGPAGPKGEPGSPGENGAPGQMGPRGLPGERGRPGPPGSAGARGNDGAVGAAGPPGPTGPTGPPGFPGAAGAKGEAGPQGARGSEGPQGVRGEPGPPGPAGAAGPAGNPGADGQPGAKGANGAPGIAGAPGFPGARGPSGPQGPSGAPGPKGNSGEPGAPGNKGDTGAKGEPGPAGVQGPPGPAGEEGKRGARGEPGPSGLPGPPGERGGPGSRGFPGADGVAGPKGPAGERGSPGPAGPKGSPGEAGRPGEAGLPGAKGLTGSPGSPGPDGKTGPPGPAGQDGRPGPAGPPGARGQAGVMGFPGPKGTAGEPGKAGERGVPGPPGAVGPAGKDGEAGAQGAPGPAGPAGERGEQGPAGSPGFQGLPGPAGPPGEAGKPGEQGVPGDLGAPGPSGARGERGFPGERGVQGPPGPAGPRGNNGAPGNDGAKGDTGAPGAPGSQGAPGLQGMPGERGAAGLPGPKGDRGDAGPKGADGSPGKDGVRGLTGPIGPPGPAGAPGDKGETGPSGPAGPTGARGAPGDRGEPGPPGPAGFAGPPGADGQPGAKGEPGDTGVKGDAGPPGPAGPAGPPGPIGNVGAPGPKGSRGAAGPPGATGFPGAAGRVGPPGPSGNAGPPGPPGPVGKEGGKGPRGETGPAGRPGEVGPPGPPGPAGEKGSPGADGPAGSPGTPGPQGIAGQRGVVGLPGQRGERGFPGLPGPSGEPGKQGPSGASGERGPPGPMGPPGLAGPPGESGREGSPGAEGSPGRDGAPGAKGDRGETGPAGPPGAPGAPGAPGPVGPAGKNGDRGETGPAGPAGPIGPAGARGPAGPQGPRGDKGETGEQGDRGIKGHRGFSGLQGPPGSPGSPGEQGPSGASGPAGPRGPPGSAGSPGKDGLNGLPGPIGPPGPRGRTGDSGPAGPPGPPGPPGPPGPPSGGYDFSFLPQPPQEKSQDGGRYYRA
Sequence (P02466 86-1125, chain 2 of 2, further chain): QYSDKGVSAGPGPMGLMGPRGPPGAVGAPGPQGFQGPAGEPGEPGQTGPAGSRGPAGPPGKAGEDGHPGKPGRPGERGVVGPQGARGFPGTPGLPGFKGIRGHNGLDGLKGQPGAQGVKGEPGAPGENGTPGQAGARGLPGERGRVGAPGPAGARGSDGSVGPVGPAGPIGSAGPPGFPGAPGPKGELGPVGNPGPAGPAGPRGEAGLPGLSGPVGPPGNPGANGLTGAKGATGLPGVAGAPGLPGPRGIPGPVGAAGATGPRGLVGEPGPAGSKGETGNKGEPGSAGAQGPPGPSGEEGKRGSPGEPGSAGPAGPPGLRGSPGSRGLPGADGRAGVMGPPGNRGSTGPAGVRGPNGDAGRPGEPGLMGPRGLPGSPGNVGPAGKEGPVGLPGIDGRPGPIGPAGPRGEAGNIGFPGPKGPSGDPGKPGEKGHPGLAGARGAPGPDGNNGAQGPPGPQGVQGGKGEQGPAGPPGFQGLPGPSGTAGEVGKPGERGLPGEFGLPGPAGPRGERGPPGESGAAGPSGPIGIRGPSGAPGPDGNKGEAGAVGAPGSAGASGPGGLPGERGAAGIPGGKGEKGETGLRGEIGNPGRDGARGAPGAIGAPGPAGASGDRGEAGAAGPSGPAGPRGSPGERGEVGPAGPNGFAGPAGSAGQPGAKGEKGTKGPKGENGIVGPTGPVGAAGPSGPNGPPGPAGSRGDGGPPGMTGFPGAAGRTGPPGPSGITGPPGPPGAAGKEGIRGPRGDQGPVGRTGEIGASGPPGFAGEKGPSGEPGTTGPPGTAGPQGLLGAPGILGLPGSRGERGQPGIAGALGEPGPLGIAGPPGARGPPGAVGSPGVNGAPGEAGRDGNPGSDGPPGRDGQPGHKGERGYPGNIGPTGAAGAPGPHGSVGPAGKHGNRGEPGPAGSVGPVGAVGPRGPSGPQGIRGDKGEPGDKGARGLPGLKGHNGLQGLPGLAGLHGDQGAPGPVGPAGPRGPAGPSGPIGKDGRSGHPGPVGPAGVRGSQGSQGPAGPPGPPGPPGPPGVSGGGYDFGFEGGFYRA
Test: dried collagen assay, 5 uM each
Bridge positions count the residues as written; N and C are the ends. Ends that are not written are not given here.
Answer format reminder: number followed by unit.

Answered cases to consult:
KKWHCYTYFPHHYCVYG (disulfide 5-14 (inferred); also: coupled to ITC-Gd3 (tris-Gd-DOTAGA isothiocyanate), site not given here) [Compound ID NO. 1014]	61%
AWHCTTLFPHHYCLYG [Compound ID 909]	0%

As a next step, examine the binder that follows.
Please give the documented Rat binding of GQWHCTYLFPHHYCLYG [Compound ID 921] 35%
